Hey, just so you know, these numbers are from the supplement of paper PMC11634586.

Test system: NCI-H1688
Test: inhibition of cell viability relative to untreated control (fraction); higher = stronger growth inhibition, active = 0.5 or more
Conditions: 30 µM; 24 h
Counter-ions that a name gives are not always drawn.
The categories you may choose from are Y = active, N = inactive

Worked examples, 5 molecules total:
# molecule, class_label
records = [
    ("CC[C@@]1([C@@H]2O[C@@H]([C@H]3O[C@@](O)(CO)[C@H](C)C[C@@H]3C)C[C@@H]2C)CC[C@H]([C@]2(C)CC[C@]3(C[C@H](O)[C@@H](C)[C@@H]([C@@H](C)[C@@H](OC)[C@H](C)C(=O)O)O3)O2)O1 [Monensin sodium salt]", "Y"),
    ("CC(=O)O[C@H]1CC[C@H]2[C@@H]3CCC4=CC(=O)CCC4=C3C=C[C@]12C [Trenbolone acetate]", "N"),
    ("c1cc2c(cc1[C@H]1OC[C@H]3[C@@H]1CO[C@@H]3c1ccc3c(c1)OCO3)OCO2", "N"),
    ("O=C(/C=C/c1ccccc1)OC[C@H]1O[C@@H](O[C@@H]2OC=C[C@H]3[C@H](O)[C@@H]4O[C@]4(CO)[C@@H]23)[C@H](O)[C@@H](O)[C@@H]1O [Picroside I]", "N"),
    ("O=C(O)CC[N+](=O)[O-]", "N"),
]

-- ask Lab log entry: O=C(O)C1C2CCC(O2)C1C(=O)O (configuration not stated) [Sodium Demethylcantharidate] — outcome as called in the assay?
-- reply N

-- ask Call for entry NCC(O)c1ccc(O)cc1 (configuration not stated) [Octopamine hydrochloride] :
-- reply N

-- ask # outcome recorded in this test, key = CN(CC(=O)O)C(=N)NP(=O)(O)O [Creatine phosphate disodium salt]
-- reply N

-- ask Record request — test call for CC(=O)[C@]1(O)CC[C@@]2(O)[C@]1(C)[C@H](OC(=O)/C=C(\C)C(C)C)C[C@@H]1[C@@]3(C)CC[C@H](O)CC3=CC[C@]12O
-- reply N

-- ask Can you look up the reported call for C[C@@H]1C(=O)O[C@H]2[C@H](O)[C@@]34O[C@@H]5OC(=O)[C@H](O)[C@@]56[C@H](C(C)(C)C)[C@H](O)C(OC3=O)[C@]64[C@@]12O (some centres not stated) [Ginkgolide C] for me?
-- reply N

-- ask For CN1[C@@H]2C[C@@H](OC(=O)[C@H](CO)c3ccccc3)C[C@H]1[C@@H]1O[C@@H]12 [Scopolamine HBr trihydrate] , what call appears in the results of this test?
-- reply N

-- ask # lookup: test call for C[C@@H]1[C@H](O)[C@@H](C)/C=C/C=C/CC/C=C/C=C/C=C/C=C/[C@H](O[C@H]2O[C@@H](C)[C@H](O)[C@@H](N)[C@H]2O)C[C@@H]2O[C@](O)(C[C@@H](O)[C@H](O)CC[C@@H](O)C[C@@H](O)C[C@@H](O)CC(=O)O[C@H]1C)C[C@H](O)[C@H]2C(=O)O
-- reply N

###

System: NCI-H1688
Assay: inhibition of cell viability relative to untreated control (fraction); higher = stronger growth inhibition, active = 0.5 or more
Details: 30 µM; 24 h
Where a name gives a salt, the structure may show the parent alone.
measured_metric: inhibition of cell viability
Answer with a number only.

# compound, measured_target, inhibition of cell viability
data = [
    ("C[C@]12CCC(=O)C=C1CC[C@@H]1[C@@H]2CC[C@@]2(C)[C@H]1CC[C@]2(C)O", "NCI-H1688", 0.403),
]

compound COc1ccc2c(c1)[nH]c1c(C)nccc12 [Harmine hydrochloride] , inhibition of cell viability observed: 0.813

Briefly, inhibition of cell viability measured for C#C[C@]1(O)CC[C@H]2[C@@H]3CCC4=CC(=O)CC[C@]4(C)[C@H]3CC[C@@]21C : 0.178

// inhibition of cell viability lookup, compound = COC1=C[C@]23CCCN2CCc2cc4c(cc2[C@@H]3[C@@H]1O)OCO4 , result: 0.394

###

Test system: NCI-H1688
Assay: inhibition of cell viability relative to untreated control (fraction); higher = stronger growth inhibition, active = 0.5 or more
Settings: 30 µM; 24 h
Structures can show the parent of a compound that is named as a salt.
I'd appreciate it if you marked entries T when inhibition of cell viability is lower than 0.2 and F when it is not.

# compound, class_label
records = [
    ("COc1cc2c(cc1OC)C13CCN4CC5=CCOC6CC(=O)N2C1C6C5CC43 (configuration not stated)", "T"),
    ("Cc1c([C@H](C)[C@@H]2NC[C@@H](C)C[C@H]2O)ccc2c1C[C@H]1[C@H]2CC=C2C[C@@H](O)CC[C@@]21C", "F"),
    ("CC(=O)O[C@H]1C[C@H](O[C@H]2[C@@H](O)C[C@H](O[C@H]3[C@@H](O)C[C@H](O[C@H]4CC[C@@]5(C)[C@H](CC[C@@H]6[C@@H]5C[C@@H](O)[C@]5(C)[C@@H](C7=CC(=O)OC7)CC[C@]65O)C4)O[C@@H]3C)O[C@@H]2C)O[C@H](C)[C@H]1O[C@@H]1O[C@H](CO)[C@@H](O)[C@H](O)[C@H]1O [Lanatoside C]", "F"),
    ("O=C1CCC[C@@H]2[C@H]3CCCN4CCC[C@@H](CN12)[C@@H]34 [(+)-Matrine]", "T"),
    ("CC(C)=CCOc1c2occc2cc2ccc(=O)oc12", "T"),
]

-- ask Problem: For the compound CCC1=C[C@@H]2CN3CCc4c([nH]c5ccccc45)[C@@](C(=O)OC)(C2)[C@@H]13 [Catharanthine tartrate] , is inhibition of cell viability under 0.2?
-- reply T

-- ask Find out if reported inhibition of cell viability for S=C=NCc1ccccc1 [Benzyl isothiocyanate] is less than 0.2
-- reply F

###

System: NCI-H1688
Assay: inhibition of cell viability relative to untreated control (fraction); higher = stronger growth inhibition, active = 0.5 or more
Details: 30 µM; 24 h
Structures can show the parent of a compound that is named as a salt.
// classify into active, inactive

A selection of reference data follows.
# molecule, class_label
records = [
    ("NCCc1c[nH]c2ccccc12", "inactive"),
    ("CNC1CC(N)C(O)C(OC2OC(CO)C(O)C3OC4(OC(C(N)CO)C(O)C(O)C4O)OC23)C1O (stereo not given)", "active"),
    ("CC1=C(O)C(=O)C=C2C1=CC=C1[C@@]2(C)CC[C@@]2(C)[C@@H]3C[C@](C)(C(=O)O)CC[C@]3(C)CC[C@]12C", "active"),
    ("CN1[C@@H]2C[C@@H](OC(=O)[C@H](CO)c3ccccc3)C[C@H]1[C@@H]1O[C@@H]12 [Scopolamine HBr]", "inactive"),
    ("N#C[C@H](O[C@@H]1O[C@H](C(=O)O)[C@@H](O)[C@H](O)[C@H]1O)c1ccccc1", "inactive"),
]

-- ask Hi, do you know how COc1cc2c(c(OC)c1OC)-c1ccc(OC)c(=O)cc1[C@@H](NC(C)=O)CC2 came out in this test?
-- reply active

-- ask What did the test return for CC1=C2C(=O)[C@H]3[C@@H](CC=C4C[C@@H](O)CC[C@@]43C)[C@@H]2CC[C@]12O[C@@H]1C[C@H](C)CN[C@H]1[C@H]2C ?
-- reply active

-- ask Dear colleague, could you share the recorded outcome for CC(C)[C@]12O[C@H]1[C@@H]1O[C@]13[C@]1(O[C@H]1C[C@H]1C4=C(CC[C@@]13C)C(=O)OC4)[C@@H]2O [Triptolide (PG490)] when you have a moment?
-- reply active

-- ask # lookup: test call for CCN1C[C@]2(OC(=O)c3ccccc3NC(C)=O)CC[C@H](OC)[C@@]34[C@@H]2C[C@@H]([C@@H]13)[C@@]1(O)C[C@H](OC)[C@H]2C[C@@H]4[C@]1(O)[C@H]2OC
-- reply inactive

-- ask Field: outcome | Entry: COc1ccc2c(c1)[nH]c1c(C)nccc12 [Harmine]
-- reply inactive

-- ask Please share the test call associated with CN1[C@@H]2CC[C@H]1C[C@@H](OC(=O)C(CO)c1ccccc1)C2 (stereo not given in full) .
-- reply inactive

-- ask Field: outcome | Entry: C=C[C@@H]1C2=CCOC(=O)C2=CO[C@H]1O[C@@H]1O[C@H](CO)[C@@H](O)[C@H](O)[C@H]1O
-- reply inactive

-- ask Assay outcome for CCC1=C[C@H]2CN3CCc4c([nH]c5ccccc45)[C@](C(=O)OC)(C2)[C@H]13 : what was it?
-- reply inactive

-- ask Answer briefly: the call reported for O=C1C[C@@H]2OCC=C3CN4CC[C@]56c7ccccc7N1[C@H]5[C@H]2[C@H]3C[C@H]46 in this assay.
-- reply inactive

-- ask Returns: the outcome recorded for NCCc1c[nH]c2ccc(O)cc12 [Serotonin hydrochloride] in this assay.
-- reply inactive
